This listing pairs compounds with measured IC50.
Target desc: MRGPRX2 (Homo sapiens)
Sequence (Q96LB1 whole entry): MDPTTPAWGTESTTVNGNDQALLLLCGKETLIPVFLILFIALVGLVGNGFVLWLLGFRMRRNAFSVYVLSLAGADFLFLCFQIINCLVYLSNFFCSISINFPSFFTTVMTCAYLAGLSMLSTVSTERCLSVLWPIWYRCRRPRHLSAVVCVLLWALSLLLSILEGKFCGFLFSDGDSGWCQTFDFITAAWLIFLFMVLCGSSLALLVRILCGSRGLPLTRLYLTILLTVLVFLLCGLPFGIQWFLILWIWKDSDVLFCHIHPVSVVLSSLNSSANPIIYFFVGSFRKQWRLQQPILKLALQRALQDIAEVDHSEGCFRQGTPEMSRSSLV
Assay overview: MRGPRX2 reporter cell assay (NFAT-RE luciferase, Substance P stimulation)
Assay type: cell-based
Measurement parameters: U2OS cells stably transfected with MRGPRX2 and NFAT-RE luciferase reporter; Substance P at EC80; class symbols
Recorded endpoint: IC50

>>> value_reported("Cn1cc(-c2c(-c3c(C(F)F)nn4c3OC[C@@H](O)C4)[nH]c3ncccc23)c(C#N)n1")
"< 10 nM"
>>> value_reported("Cn1cc(-c2c(-c3c(C(F)F)nn4c3OC[C@@H](NC(=O)OC3CCOC3)C4)[nH]c3ncccc23)c(OC(F)F)n1 (stereo partly shown)")
"< 10 nM"
>>> value_reported("COc1ccc(C#N)c(-c2c(-c3c(C(F)F)nn4c3OCC(N)C4)[nH]c3ncccc23)c1 (stereo not shown)")
"< 10 nM"
>>> value_reported("Cn1cc(-c2c(-c3c(C4CC4)nn4c3OC[C@@H](NS(C)(=O)=O)C4)[nH]c3ncccc23)c(OC(F)F)n1")
"< 10 nM"
>>> value_reported("COc1ccc(F)c(-c2c(-c3cc(F)ccc3OC)[nH]c3ncccc23)c1 [EX. 323]")
"< 10 nM"
>>> value_reported("Cn1cc(-c2c(-c3c(C(F)F)nn4c3OC[C@@H](NCCO)C4)[nH]c3ncccc23)c(OC(F)F)n1")
"< 10 nM"
>>> value_reported("CS(=O)(=O)N[C@@H]1COc2c(-c3[nH]c4ncccc4c3-c3csnc3OC(F)F)c(C(F)F)nn2C1")
"< 10 nM"
